molecular target: Disintegrin and metalloproteinase domain-containing protein 8 (Homo sapiens, UniProt P78325); assay: Inhibition of ADAM8 (unknown origin) expressed in African green monkey COS7 cells co-expressing CD23 assessed as inhibition of CD23 shedding after 6 hrs by ELISA
Sequence (P78325 whole entry, the tested form may be a part): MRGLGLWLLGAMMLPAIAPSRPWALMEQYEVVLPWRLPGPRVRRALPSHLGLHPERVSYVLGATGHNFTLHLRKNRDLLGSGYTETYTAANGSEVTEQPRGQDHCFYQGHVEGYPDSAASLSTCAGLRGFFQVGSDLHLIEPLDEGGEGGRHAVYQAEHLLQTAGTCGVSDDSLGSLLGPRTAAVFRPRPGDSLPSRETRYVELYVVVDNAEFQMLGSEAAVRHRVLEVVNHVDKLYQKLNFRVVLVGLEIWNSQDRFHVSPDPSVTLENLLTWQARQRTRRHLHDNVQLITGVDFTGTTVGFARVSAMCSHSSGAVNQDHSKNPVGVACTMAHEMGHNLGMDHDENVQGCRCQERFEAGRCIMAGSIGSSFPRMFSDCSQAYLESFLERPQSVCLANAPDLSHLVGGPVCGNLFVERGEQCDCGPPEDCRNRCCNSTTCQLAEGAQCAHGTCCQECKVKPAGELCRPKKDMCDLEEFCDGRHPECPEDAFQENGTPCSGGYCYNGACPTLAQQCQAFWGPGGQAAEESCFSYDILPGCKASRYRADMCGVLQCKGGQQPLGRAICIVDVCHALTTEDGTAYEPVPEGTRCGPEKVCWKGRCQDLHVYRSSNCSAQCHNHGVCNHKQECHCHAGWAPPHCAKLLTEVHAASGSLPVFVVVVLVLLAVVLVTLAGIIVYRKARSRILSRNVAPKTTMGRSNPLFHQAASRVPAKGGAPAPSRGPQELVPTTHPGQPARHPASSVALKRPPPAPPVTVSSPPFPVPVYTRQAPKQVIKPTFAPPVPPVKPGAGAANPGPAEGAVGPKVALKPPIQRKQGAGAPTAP
Where a SMILES comes first, the peptide text is derived from it. Bridges are numbered along the chain shown (N, C = ends). [ ]: non-standard residue; d: D form. Lys(Me3) = C[N+](C)(C)CCCC[C@H](N)C(=O)O; tBuAla = CC(C)(C)C[C@H](N)C(=O)O; Cit = NC(=O)NCCC[C@H](N)C(=O)O; β3hS = N[C@@H](CO)CC(=O)O; Dab = NCC[C@H](N)C(=O)O; βAla = NCCC(=O)O
VALUE_KIND: IC50

Below, each entry is followed by its recorded IC50 result.
CC(C)(C)C[C@@H]1NC(=O)[C@H](CCCNC(=N)N)NC(=O)[C@H](CCCCN)NC(=O)[C@H](CC(=O)O)NC(=O)[C@H](CCCCN)NC(=O)CCNC1=O (cyclo(DKR[tBuAla][βAla]K)) ... 256 nM
CC(C)C[C@@H]1NC(=O)[C@H](CCCNC(=N)N)NC(=O)[C@H](CCN)NC(=O)[C@H](CC(=O)O)NC(=O)[C@H](CCCCN)NC(=O)CCNC1=O (cyclo(D[Dab]RL[βAla]K)) ... > 5000 nM
CC(C)C[C@@H]1NC(=O)[C@H](CCCNC(=N)N)NC(=O)[C@H](CCCC[N+](C)(C)C)NC(=O)[C@H](CC(=O)O)NC(=O)[C@H](CCCCN)NC(=O)CCNC1=O (cyclo(D[Lys(Me3)]RL[βAla]K)) ... > 10000 nM
CC(C)C[C@@H]1NC(=O)[C@H](CCCNC(=N)N)NC(=O)[C@H](CCCCN)NC(=O)[C@H](CC(=O)O)NC(=O)[C@H](CCCCN)NC(=O)[C@H](CO)NC1=O (cyclo(DKRLSK)) ... 240 nM
CC(C)C[C@@H]1NC(=O)[C@H](CCCNC(N)=O)NC(=O)[C@H](CCCCN)NC(=O)[C@H](CC(=O)O)NC(=O)[C@H](CCCCN)NC(=O)CCNC1=O (cyclo([Cit]L[βAla]KDK)) ... 890 nM
CC(C)C[C@@H]1NC(=O)[C@H](CCCNC(=N)N)NC(=O)[C@H](CCCCN)NC(=O)[C@H](CC(=O)O)NC(=O)[C@H](CCCCN)NC(=O)C[C@H](CO)NC1=O (cyclo(DKRL[β3hS]K)) ... 157 nM

Moving on to the next compound.
Asked: Give the measured IC50 for CC(C)C[C@@H]1NC(=O)[C@H](CCCNC(=N)N)NC(=O)[C@H](CCCCN)NC(=O)[C@H](CC(=O)O)NC(=O)[C@H](CCCCN)NC(=O)C[C@@H](C(=O)O)NC1=O (KDKRLD-OH; lactam N-6)
Given back: 420 nM

###

molecular target: Disintegrin and metalloproteinase domain-containing protein 8 (Homo sapiens); test: Inhibition of ADAM8 (unknown origin) expressed in African green monkey COS7 cells co-expressing CD23 assessed as inhibition of CD23 shedding after 6 hrs by ELISA
Where a SMILES comes first, the peptide text is derived from it. [ ]: non-standard residue; d: D form. Arg(NO2) = N=C(NCCC[C@H](N)C(=O)O)N[N+](=O)[O-]; hArg = N=C(N)NCCCC[C@H](N)C(=O)O; Cit = NC(=O)NCCC[C@H](N)C(=O)O; hLeu = CC(C)CC[C@H](N)C(=O)O; β3hS = N[C@@H](CO)CC(=O)O; Nle = CCCC[C@H](N)C(=O)O; Nva = CCC[C@H](N)C(=O)O; βAla = NCCC(=O)O
VALUE_KIND: pIC50
Reminder that pIC50 means the negative base-10 logarithm of the concentration expressed in mol/L.

CC(C)CC[C@@H]1NC(=O)[C@H](CCCNC(=N)N)NC(=O)[C@H](CCCCN)NC(=O)[C@H](CC(=O)O)NC(=O)[C@H](CCCCN)NC(=O)C[C@H](CO)NC1=O (cyclo(DKR[hLeu][β3hS]K)) ... 6.85
CC(C)C[C@@H]1NC(=O)[C@H](CCCNC(=N)N[N+](=O)[O-])NC(=O)[C@H](CCCCN)NC(=O)[C@H](CC(=O)O)NC(=O)[C@H](CCCCN)NC(=O)C[C@H](CO)NC1=O (cyclo([Arg(NO2)]L[β3hS]KDK)) ... 5.90
CC(C)C[C@@H]1NC(=O)[C@H](CCCNC(=N)N)NC(=O)[C@H](CCCCN)NC(=O)[C@H](CC(=O)O)NC(=O)[C@H](CCCCN)NC(=O)CCNC1=O (cyclo(DKRL[βAla]K)) ... 5.78
CC(C)CC[C@@H]1NC(=O)[C@H](CCCNC(=N)N)NC(=O)[C@H](CCCCN)NC(=O)[C@H](CC(=O)O)NC(=O)[C@H](CCCCN)NC(=O)CCNC1=O (cyclo(DKR[hLeu][βAla]K)) ... 6.66
CC(C)C[C@@H]1NC(=O)[C@H](CCCNC(=N)N[N+](=O)[O-])NC(=O)[C@H](CCCCN)NC(=O)[C@H](CC(=O)O)NC(=O)[C@H](CCCCN)NC(=O)CCNC1=O (cyclo([Arg(NO2)]L[βAla]KDK)) ... 5.63
CC(C)C[C@@H]1NC(=O)[C@H](CCCNC(N)=O)NC(=O)[C@H](CCCCN)NC(=O)[C@H](CC(=O)O)NC(=O)[C@H](CCCCN)NC(=O)C[C@H](CO)NC1=O (cyclo([Cit]L[β3hS]KDK)) ... 6.72
CCCC[C@@H]1NC(=O)[C@H](CCCNC(=N)N)NC(=O)[C@H](CCCCN)NC(=O)[C@H](CC(=O)O)NC(=O)[C@H](CCCCN)NC(=O)CCNC1=O (cyclo(DKR[Nle][βAla]K)) ... 6.42
CC(C)C[C@@H]1NC(=O)[C@H](CCCCNC(=N)N)NC(=O)[C@H](CCCCN)NC(=O)[C@H](CC(=O)O)NC(=O)[C@H](CCCCN)NC(=O)C[C@H](CO)NC1=O (cyclo(DK[hArg]L[β3hS]K)) ... 6.43

Asked: Give the measured pIC50 for CCC[C@@H]1NC(=O)[C@H](CCCNC(=N)N)NC(=O)[C@H](CCCCN)NC(=O)[C@H](CC(=O)O)NC(=O)[C@H](CCCCN)NC(=O)CCNC1=O (cyclo(DKR[Nva][βAla]K))
Given back: 6.34

Just for reference, ChEMBL document CHEMBL3826879 is where these values come from.
